Biological target: Prostaglandin G/H synthase 2 (Homo sapiens) (UniProt P35354)
Sequence (whole entry): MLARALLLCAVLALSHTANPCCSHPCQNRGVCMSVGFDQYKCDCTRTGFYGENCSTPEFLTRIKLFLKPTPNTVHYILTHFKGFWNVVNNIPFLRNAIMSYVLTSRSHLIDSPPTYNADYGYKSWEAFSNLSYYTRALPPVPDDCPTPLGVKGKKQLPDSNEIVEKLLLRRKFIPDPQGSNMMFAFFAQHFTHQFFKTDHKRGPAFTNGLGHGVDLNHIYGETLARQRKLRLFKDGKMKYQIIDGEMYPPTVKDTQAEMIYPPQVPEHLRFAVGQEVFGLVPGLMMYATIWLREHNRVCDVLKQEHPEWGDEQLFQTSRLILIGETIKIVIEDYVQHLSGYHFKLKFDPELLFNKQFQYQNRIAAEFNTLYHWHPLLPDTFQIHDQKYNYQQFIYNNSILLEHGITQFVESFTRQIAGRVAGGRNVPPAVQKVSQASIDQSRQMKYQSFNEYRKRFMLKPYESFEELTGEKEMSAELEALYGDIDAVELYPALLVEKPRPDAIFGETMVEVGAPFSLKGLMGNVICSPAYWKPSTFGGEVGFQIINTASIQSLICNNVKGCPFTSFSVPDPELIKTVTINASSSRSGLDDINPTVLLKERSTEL
Experiment: Inhibition of human recombinant COX2-mediated 12-HHT formation assessed as remaining activity at 10 uM preincubated for 5 mins before arachidonic acid addition by HPLC analysis
Metric name: Activity (%)
Give bare numbers, in %.

# example entries with known answers
{"columns": ["Cpd smiles", "Assayed system", "Unit spec", "Activity"],
 "data": [
  ["CCCC/C(=C\\c1cc(OCc2ccc(Cl)c(Cl)c2)ccc1OCc1ccc(C(F)(F)F)cc1)C(=O)O", "Prostaglandin G/H synthase 2 (Homo sapiens) (UniProt P35354)", "%", 73.3],
  ["CCCC/C(=C\\c1cc(OCc2cc3ccccc3s2)ccc1OCc1ccc(C(F)(F)F)cc1)C(=O)O", "Prostaglandin G/H synthase 2 (Homo sapiens) (UniProt P35354)", "%", 91.7],
  ["CCCC/C(=C\\c1cc(OCc2ccc(F)cc2)ccc1OCc1ccc(C(F)(F)F)cc1)C(=O)O", "Prostaglandin G/H synthase 2 (Homo sapiens) (UniProt P35354)", "%", 84.2]
]}

Moving on to another compound below.
In plain terms, CCCC/C(=C\c1cc(OC/C=C/c2ccccc2)ccc1OCc1ccc(C(F)(F)F)cc1)C(=O)O has a documented Activity of 77.7

---

Assignment: determine reported IC50 for the given molecules.
Target: Prostaglandin E synthase (Homo sapiens, UniProt O14684)
Sequence (O14684 whole entry): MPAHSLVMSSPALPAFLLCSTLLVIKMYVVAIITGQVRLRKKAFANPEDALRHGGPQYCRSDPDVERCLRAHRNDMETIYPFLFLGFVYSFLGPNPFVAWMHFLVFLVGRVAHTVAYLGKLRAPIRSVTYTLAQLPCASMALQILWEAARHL
Assay: Inhibition of mPGES-1-mediated PGE2 formation in interleukin-1beta-stimulated human A549 microsomal membranes preincubated for 15 mins before PGH2 addition by RP-HPLC analysis
Give bare numbers, in µM.

# example entries with known answers
{"columns": ["Cpd smiles", "Test value"],
 "data": [
  ["CCCC/C(=C\\c1cc(OCc2cc3ccccc3s2)ccc1OCc1ccc(C(F)(F)F)cc1)C(=O)O", 9.2],
  ["CCCC/C(=C\\c1cc(OCc2ccc(Cl)c(Cl)c2)ccc1OCc1ccc(C(F)(F)F)cc1)C(=O)O", 1.6]
]}

In plain terms, CCCC/C(=C\c1cc(OCc2ccccc2)ccc1OCc1ccc(C(F)(F)F)cc1)C(=O)O has a documented IC50 of 5.6
